System tested: CDK1/Cyclin B1 (Homo sapiens (Human))
Sequence (P06493 whole entry): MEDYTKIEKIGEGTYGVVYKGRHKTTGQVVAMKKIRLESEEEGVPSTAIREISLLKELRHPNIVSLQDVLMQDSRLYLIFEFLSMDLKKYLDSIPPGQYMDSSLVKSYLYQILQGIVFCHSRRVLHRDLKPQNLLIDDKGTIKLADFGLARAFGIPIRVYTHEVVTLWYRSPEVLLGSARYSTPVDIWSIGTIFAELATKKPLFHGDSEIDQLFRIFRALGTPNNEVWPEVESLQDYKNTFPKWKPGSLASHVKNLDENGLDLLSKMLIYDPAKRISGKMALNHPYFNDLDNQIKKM
Sequence (P14635 whole entry partner): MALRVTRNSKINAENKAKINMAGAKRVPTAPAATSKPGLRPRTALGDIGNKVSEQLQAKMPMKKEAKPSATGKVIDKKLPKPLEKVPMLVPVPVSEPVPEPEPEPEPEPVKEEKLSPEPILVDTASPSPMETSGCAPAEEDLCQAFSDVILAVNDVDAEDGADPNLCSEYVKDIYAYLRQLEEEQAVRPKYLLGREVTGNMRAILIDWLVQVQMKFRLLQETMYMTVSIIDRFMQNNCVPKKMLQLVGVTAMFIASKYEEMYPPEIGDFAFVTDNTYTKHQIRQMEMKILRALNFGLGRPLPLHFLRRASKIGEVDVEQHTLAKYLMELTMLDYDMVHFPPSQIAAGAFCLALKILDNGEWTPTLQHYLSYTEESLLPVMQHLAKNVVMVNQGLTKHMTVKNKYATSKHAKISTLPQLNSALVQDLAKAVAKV
Experimental details: CDK1/Cyclin B1 ADP-Glo Kinase Assay
Result type: IC50

- Compound: "Cc1cc2cnc(Nc3cc4c(cc3F)CN(S(C)(=O)=O)C4)nc2c(N2CC3(CNC3)C2)n1 [Compound 37]"
  Result type: "IC50"
  Result: "> 2 µM"
- Compound: "Cc1cc2cnc(NC3CCN(S(C)(=O)=O)CC3)nc2c(N2CCC3(CCC3(F)F)C2)n1 (stereo not drawn) [Compound 52]"
  Result type: "IC50"
  Result: "< 0.2 µM"
- Compound: "Cc1cc2cnc(Nc3ccc4c(c3)CN(C3CN(S(C)(=O)=O)C3)C4)nc2c(N2CC3(CN(C)C3)C2)n1 [Compound 29]"
  Result type: "IC50"
  Result: "> 2 µM"
- Compound: "COC1CC2(C1)CN(c1nc(C3CC3)cc3cnc(NC4CCN(S(C)(=O)=O)CC4)nc13)C2 [Compound 75]"
  Result type: "IC50"
  Result: "> 2 µM"
- Compound: "O=S(=O)(C1CC1)N1CCC(Nc2ncc3cc(C(F)F)nc(N4CC5(CCNC5)C4)c3n2)CC1 [Compound 46]"
  Result type: "IC50"
  Result: "< 0.2 µM"
- Compound: "Cc1cc2cnc(NC3CCN(S(C)(=O)=O)CC3)nc2c(N2CC3(CN(C)C[C@@H]3F)C2)n1 [Compound 103]"
  Result type: "IC50"
  Result: "0.5 to 2 µM"
- Compound: "Cc1cc2cnc(Nc3ccc(CS(C)(=O)=O)cc3)nc2c(N2CC(O)(C3CC3)C2)n1 [Compound 83]"
  Result type: "IC50"
  Result: "0.2 to 0.5 µM"
- Compound: "Cc1cc2cnc(NC3CCN(S(C)(=O)=O)CC3)nc2c(N2CC3(CNC(=O)C3)C2)n1 [Compound 81]"
  Result type: "IC50"
  Result: "0.2 to 0.5 µM"
- Compound: "Cc1cc2cnc(NC3CCN(S(=O)(=O)C4CC4)CC3)nc2c(N2CCC(OC(F)F)C2)n1 (stereo not drawn) [Compound 58]"
  Result type: "IC50"
  Result: "< 0.2 µM"
- Compound: "CS(=O)(=O)N1CCC(Nc2ncc3cc(C(F)F)nc(N4CC5(CNCCC5(F)F)C4)c3n2)CC1 [Compound 65]"
  Result type: "IC50"
  Result: "< 0.2 µM"
- Compound: "Cc1cc2cnc(NC3CCN(S(C)(=O)=O)CC3)nc2c(N2CC3(CNCC3F)C2)n1 (stereo not drawn) [Compound 98]"
  Result type: "IC50"
  Result: "0.2 to 0.5 µM"
- Compound: "CN1CCN(c2ccc(Nc3ncc4ccnc(N5CCC6(CCN(S(C)(=O)=O)C6)C5)c4n3)cc2)CC1 (stereo not drawn) [Compound 9]"
  Result type: "IC50"
  Result: "0.2 to 0.5 µM"
- Compound: "CS(=O)(=O)N1CCC(Nc2ncc3cc(C4CC4)nc(C4CC5(CNCCO5)C4)c3n2)CC1 (stereo not drawn) [Compound 70]"
  Result type: "IC50"
  Result: "< 0.2 µM"
- Compound: "Cc1cc2cnc(NC3CCN(S(C)(=O)=O)CC3)nc2c(N2CCC3(C2)CC(F)(F)C3)n1 [Compound 53]"
  Result type: "IC50"
  Result: "> 2 µM"
- Compound: "Cc1cc2cnc(N[C@H]3CC[C@@H](CN(C)C)CC3)nc2c(N2CCC3(C2)CC3(F)F)n1 (stereo partly drawn) [Compound 45]"
  Result type: "IC50"
  Result: "> 2 µM"
- Compound: "Cc1cc2cnc(NC3CCN(S(C)(=O)=O)CC3)nc2c(N2CC3(CCC(=O)N3)C2)n1 [Compound 77]"
  Result type: "IC50"
  Result: "0.2 to 0.5 µM"
- Compound: "Cc1cc2cnc(NC3CCN(S(C)(=O)=O)CC3)nc2c(N2CC(F)(F)C3(CNC3)C2)n1 [Compound 92]"
  Result type: "IC50"
  Result: "< 0.2 µM"
- Compound: "Cc1cc2cnc(NC3CCN(S(C)(=O)=O)CC3)nc2c(N2CCC3(C2)CC3(F)F)n1 (stereo not drawn) [Compound 41]"
  Result type: "IC50"
  Result: "< 0.2 µM"
- Compound: "CCN1CC2(C1)CN(c1ccc(Nc3ncc4ccnc(N5CCC6(C5)CC(F)(F)C6)c4n3)nc1)C2 [Example 6]"
  Result type: "IC50"
  Result: "> 2 µM"
- Compound: "CS(=O)(=O)N1CCC(Nc2ncc3ccnc(N4CCC5(C4)CC5(F)F)c3n2)CC1 (stereo not drawn) [Compound 3]"
  Result type: "IC50"
  Result: "< 0.2 µM"
- Compound: "COC1CC2(C1)CN(c1nc(C)cc3cnc(NC4CCN(S(=O)(=O)C5CC5)CC4)nc13)C2 [Compound 71]"
  Result type: "IC50"
  Result: "0.2 to 0.5 µM"
- Compound: "Cc1cc2cnc(NC3CCN(S(=O)(=O)C4CC4)CC3)nc2c(N2CC(C#N)(CCF)C2)n1 [Compound 68]"
  Result type: "IC50"
  Result: "> 2 µM"
- Compound: "[2H]C([2H])([2H])N1CC2(CN(c3nc(C)cc4cnc(NC5CCN(S(=O)(=O)c6cnn(C)c6)CC5)nc34)CC2(F)F)C1 [Example 11]"
  Result type: "IC50"
  Result: "< 0.2 µM"
- Compound: "Cc1cc2cnc(NC3CCN(S(=O)(=O)C4CC4)CC3)nc2c(N2CC(F)(F)C3(CN(C)C3)C2)n1 [Compound 102]"
  Result type: "IC50"
  Result: "< 0.2 µM"
- Compound: "CN1CCN(c2ccc(Nc3ncc4ccnc(N5CCC6(C5)CC(F)(F)C6)c4n3)cc2)CC1 [Compound 4]"
  Result type: "IC50"
  Result: "0.2 to 0.5 µM"
- Compound: "Cc1cc2cnc(NC3CCN(S(=O)(=O)C4(C)CC4)CC3)nc2c(C2CC(C)(O)C2)n1 (stereo not drawn) [Compound 63]"
  Result type: "IC50"
  Result: "> 2 µM"
- Compound: "Cc1cc2cnc(NC3CCN(S(=O)(=O)C4CC4)CC3)nc2c(N2CC(F)(F)C3(CNC3)C2)n1 [Compound 62]"
  Result type: "IC50"
  Result: "< 0.2 µM"
- Compound: "CS(=O)(=O)N1CCC(Nc2ncc3ccnc(N4CC5(C4)CN(C4CC4)C5)c3n2)CC1 [Compound 8]"
  Result type: "IC50"
  Result: "0.2 to 0.5 µM"
- Compound: "Cc1cc2cnc(NC3CCN(S(C)(=O)=O)CC3)nc2c(N2CC(O)(C(F)F)C2)n1 [Compound 91]"
  Result type: "IC50"
  Result: "< 0.2 µM"
- Compound: "Cc1cc2cnc(Nc3cnn(C4CC5(C4)CN(C)C5)c3)nc2c(N2CC3(C2)CN(S(C)(=O)=O)C3)n1 [Compound 26]"
  Result type: "IC50"
  Result: "> 2 µM"
